- ASSAY_TARGET: VIM-1 (Pseudomonas aeruginosa (strain ATCC 15692 / DSM 22644 / CIP 104116 / JCM 14847 / LMG 12228 / 1C / PRS 101 / PAO1), UniProt A0A0F7KYQ8)
- ASSAY_INFO: Enzyme activity: determination of IC50, fluorescence assay with CCF2-FA substrate (VIM-1)
- Format: biochemical
- EXPERIMENTAL_CONDITIONS: VIM-1 IC50, VIM-1 enzyme, CCF2-FA fluorescence assay
Checkbox rule: IC50 lower than 300 nM = 1 (yes); IC50 not lower than 300 nM = 0 (no).

{"COMPOUND": "NS(=O)(=O)c1cccc(-c2ccc(CNCc3ccncn3)cc2)c1-c1nnn[nH]1", "CLASS_NAME": "1 (yes)"}
{"COMPOUND": "CC(NCc1ccc(-c2cccc(S(N)(=O)=O)c2-c2nnn[nH]2)cc1)c1nn[nH]n1 (centres unmarked)", "CLASS_NAME": "0 (no)"}
{"COMPOUND": "NCc1nccc2cc(-c3cccc(S(N)(=O)=O)c3-c3nn[nH]n3)ccc12", "CLASS_NAME": "1 (yes)"}
{"COMPOUND": "NS(=O)(=O)c1c(Cl)ccc(-c2ccc(C3CCNCC3)cc2)c1-c1nn[nH]n1", "CLASS_NAME": "1 (yes)"}
{"COMPOUND": "NC(=O)C1CN(Cc2ccc(-c3cccc(S(N)(=O)=O)c3-c3nnn[nH]3)cc2)C1", "CLASS_NAME": "0 (no)"}
{"COMPOUND": "NS(=O)(=O)c1cccc(-c2ccc(CNCC3(O)CC3)cc2)c1-c1nnn[nH]1", "CLASS_NAME": "1 (yes)"}
{"COMPOUND": "COc1nc2cc(Cl)c(-c3cccc(S(N)(=O)=O)c3-c3nn[nH]n3)cc2[nH]1", "CLASS_NAME": "1 (yes)"}
{"COMPOUND": "Cc1ccncc1-c1cccc(S(N)(=O)=O)c1-c1nn[nH]n1", "CLASS_NAME": "1 (yes)"}

---

- ASSAY_TARGET: UniProt P52699
- ASSAY_INFO: biochemical
- Type: biochemical
- EXPERIMENTAL_CONDITIONS: IMP-1 enzyme, CCF2-FA substrate; read-out: IMP-1 IC50
pIC50: −log10 of the molar value.
Assign t whenever pIC50 does not fall below 8; assign f whenever it does.

{"COMPOUND": "NC1CCCc2ccc(-c3ccc(C(F)(F)F)c(S(N)(=O)=O)c3-c3nnn[nH]3)cc21 (centres unmarked) [Example 731]", "CLASS_NAME": "f"}
{"COMPOUND": "NS(=O)(=O)c1c(C(F)(F)F)ccc(-c2ccc(OC3CNC3)cc2)c1-c1nnn[nH]1 [Example 719]", "CLASS_NAME": "t"}
{"COMPOUND": "NCC1(N)CCC(c2ccc(C(F)(F)F)c(S(N)(=O)=O)c2-c2nnn[nH]2)CC1 (centres unmarked) [Example 497]", "CLASS_NAME": "f"}
{"COMPOUND": "NS(=O)(=O)c1c(C(F)(F)F)ccc(-c2cccc3c2CCCN3)c1-c1nnn[nH]1 [Example 518]", "CLASS_NAME": "t"}
{"COMPOUND": "NS(=O)(=O)c1cccc(-c2ccc(N3CC(CN4CCCC4)C3)nc2)c1-c1nnn[nH]1 [Example 630]", "CLASS_NAME": "f"}

---

- ASSAY_TARGET: NDM-1 (Klebsiella pneumoniae, UniProt C7C422)
- Sequence (C7C422 whole entry, looked up, species assumed): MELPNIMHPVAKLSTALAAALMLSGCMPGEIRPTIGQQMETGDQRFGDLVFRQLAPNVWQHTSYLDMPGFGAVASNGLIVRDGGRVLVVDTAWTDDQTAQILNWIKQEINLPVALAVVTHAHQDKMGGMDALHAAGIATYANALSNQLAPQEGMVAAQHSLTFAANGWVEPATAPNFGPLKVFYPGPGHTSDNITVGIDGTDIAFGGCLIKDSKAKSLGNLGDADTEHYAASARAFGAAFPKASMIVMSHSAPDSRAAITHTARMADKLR
- ASSAY_INFO: biochemical
- Type: biochemical
- EXPERIMENTAL_CONDITIONS: NDM-1 enzyme, CCF2-FA substrate; read-out: NDM-1 IC50
pIC50: −log10 of the molar value.
Criterion: pIC50 meeting or surpassing 8. Met: TRUE. Not met: FALSE.

{"COMPOUND": "NS(=O)(=O)c1cccc(C2CCCc3ncccc32)c1-c1nn[nH]n1 (centres unmarked)", "ASSAY_TARGET": "NDM-1 (Klebsiella pneumoniae, UniProt C7C422)", "CLASS_NAME": "TRUE"}
{"COMPOUND": "NCCN[C@H]1CC[C@H](c2ccc(C(F)(F)F)c(S(N)(=O)=O)c2-c2nnn[nH]2)CC1", "ASSAY_TARGET": "NDM-1 (Klebsiella pneumoniae, UniProt C7C422)", "CLASS_NAME": "TRUE"}
{"COMPOUND": "NC[C@H]1CC[C@H](c2ccc(C(F)(F)F)c(S(N)(=O)=O)c2-c2nnn[nH]2)CC1", "ASSAY_TARGET": "NDM-1 (Klebsiella pneumoniae, UniProt C7C422)", "CLASS_NAME": "TRUE"}
{"COMPOUND": "Cc1cc(N)ncc1Cc1cccc(S(N)(=O)=O)c1-c1nn[nH]n1", "ASSAY_TARGET": "NDM-1 (Klebsiella pneumoniae, UniProt C7C422)", "CLASS_NAME": "FALSE"}
{"COMPOUND": "NC(=O)CCc1ccc(-c2cccc3sc(N)nc23)c(-c2nn[nH]n2)c1S(N)(=O)=O", "ASSAY_TARGET": "NDM-1 (Klebsiella pneumoniae, UniProt C7C422)", "CLASS_NAME": "TRUE"}
{"COMPOUND": "NC1(CN2CCC(c3ccc(-c4ccc(C(F)(F)F)c(S(N)(=O)=O)c4-c4nnn[nH]4)cc3)CC2)CC1", "ASSAY_TARGET": "NDM-1 (Klebsiella pneumoniae, UniProt C7C422)", "CLASS_NAME": "TRUE"}

---

- ASSAY_TARGET: IMP-1 (Serratia marcescens, UniProt P52699)
- Sequence (P52699 whole entry, looked up): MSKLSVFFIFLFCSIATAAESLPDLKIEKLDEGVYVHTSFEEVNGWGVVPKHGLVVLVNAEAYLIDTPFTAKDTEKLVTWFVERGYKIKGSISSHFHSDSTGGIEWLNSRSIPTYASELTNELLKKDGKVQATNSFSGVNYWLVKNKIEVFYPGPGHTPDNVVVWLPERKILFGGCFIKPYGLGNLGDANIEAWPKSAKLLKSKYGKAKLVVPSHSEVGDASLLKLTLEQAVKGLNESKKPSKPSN
- ASSAY_INFO: biochemical
- Format: biochemical
- EXPERIMENTAL_CONDITIONS: IMP-1 enzyme, CCF2-FA substrate; read-out: IMP-1 IC50
pIC50: −log10 of the molar value.
Where pIC50 equals or exceeds 8, the correct label is rule met; where it does not, the label is rule not met.

{"MOLECULE": "NC1(c2ccc(-c3ccc(C(F)(F)F)c(S(N)(=O)=O)c3-c3nnn[nH]3)cc2)CCOC1 (centres unmarked) [Example 730]", "CLASS_NAME": "rule met"}
{"MOLECULE": "CN(C)C1(C)CN(c2ccc(-c3cccc(S(N)(=O)=O)c3-c3nnn[nH]3)cn2)C1 [Example 625]", "CLASS_NAME": "rule not met"}
{"MOLECULE": "N=C(N)NC[C@H]1CC[C@@H](c2ccc(C(F)(F)F)c(S(N)(=O)=O)c2-c2nnn[nH]2)CC1 [Example 502]", "CLASS_NAME": "rule met"}
{"MOLECULE": "NS(=O)(=O)c1cccc(-c2cnc3ncccn23)c1-c1nnn[nH]1 [Example 647]", "CLASS_NAME": "rule not met"}
{"MOLECULE": "Nc1ncc(C#Cc2ccc(C(F)(F)F)c(S(N)(=O)=O)c2-c2nn[nH]n2)cc1CO [Example 507]", "CLASS_NAME": "rule met"}
{"MOLECULE": "NS(=O)(=O)c1c(CC[C@H]2CC[C@@H](N)CC2)ccc(-c2ccc(C3CNC3)cc2)c1-c1nnn[nH]1 [Example 600]", "CLASS_NAME": "rule not met"}
{"MOLECULE": "NS(=O)(=O)c1c(C(F)(F)F)ccc(-c2cnn3ccccc23)c1-c1nnn[nH]1 [Example 710]", "CLASS_NAME": "rule met"}

---

- ASSAY_TARGET: UniProtKB P52699
- ASSAY_INFO: biochemical
- Type: biochemical
- EXPERIMENTAL_CONDITIONS: IMP-1 enzyme, CCF2-FA substrate; read-out: IMP-1 IC50
MEASUREMENT_LABEL: IC50 (nM)

{"MOLECULE": "NS(=O)(=O)c1c(C(F)(F)F)ccc(-c2cnc3ncccn23)c1-c1nnn[nH]1", "QUANTITY_UNIT": "nM", "MEASURED": 126}
{"MOLECULE": "CC(C)[C@H](N)CN1CCC(c2ccc(-c3cccc(S(N)(=O)=O)c3-c3nnn[nH]3)cc2)CC1", "QUANTITY_UNIT": "nM", "MEASURED": 16.7}
{"MOLECULE": "NS(=O)(=O)c1c(C(F)(F)F)ccc([C@H]2CC[C@@H](O)CC2)c1-c1nnn[nH]1", "QUANTITY_UNIT": "nM", "MEASURED": 4.26}
{"MOLECULE": "NS(=O)(=O)c1c(C(F)(F)F)ccc(N2CC3C(CO)C3C2)c1-c1nnn[nH]1 (stereo not shown)", "QUANTITY_UNIT": "nM", "MEASURED": 7}

---

Reported IC50 values for a set of molecules
- ASSAY_TARGET: VIM-1 (Pseudomonas aeruginosa (strain ATCC 15692 / DSM 22644 / CIP 104116 / JCM 14847 / LMG 12228 / 1C / PRS 101 / PAO1), UniProt A0A0F7KYQ8)
- ASSAY_INFO: Enzyme activity: determination of IC50, fluorescence assay with CCF2-FA substrate (VIM-1)
- Type: biochemical
- EXPERIMENTAL_CONDITIONS: fluorescence assay with CCF2-FA substrate; read-out: VIM-1 IC50

{"MOLECULE": "NS(=O)(=O)c1nccc(N2CCC(N3CC[C@H](O)C3)CC2)c1-c1nnn[nH]1", "QUANTITY_UNIT": "µM", "IC50": 0.71}
{"MOLECULE": "NS(=O)(=O)c1cccc(C2=CCOCC2)c1-c1nnn[nH]1", "QUANTITY_UNIT": "µM", "IC50": 0.388}
{"MOLECULE": "NS(=O)(=O)c1cccc(-c2ccc(C(=O)NC3CCOC3)cc2)c1-c1nn[nH]n1 (centres unmarked)", "QUANTITY_UNIT": "µM", "IC50": 1.91}
{"MOLECULE": "NS(=O)(=O)c1cccc(-c2ccc3[nH]c(=O)[nH]c3c2)c1-c1nn[nH]n1", "QUANTITY_UNIT": "µM", "IC50": 0.0232}
{"MOLECULE": "NS(=O)(=O)c1cccc(-c2ccccc2)c1-c1nn[nH]n1", "QUANTITY_UNIT": "µM", "IC50": 0.108}
{"MOLECULE": "Cc1nccn1-c1nc(-c2cccc(S(N)(=O)=O)c2-c2nn[nH]n2)cs1", "QUANTITY_UNIT": "µM", "IC50": 0.524}
{"MOLECULE": "NS(=O)(=O)c1cccc(-c2c[nH]c3nccnc23)c1-c1nn[nH]n1", "QUANTITY_UNIT": "µM", "IC50": 0.107}
{"MOLECULE": "NS(=O)(=O)c1cccc(-c2ccc(C3CCNC3)cc2)c1-c1nnn[nH]1 (centres unmarked)", "QUANTITY_UNIT": "µM", "IC50": 0.0224}
{"MOLECULE": "NS(=O)(=O)c1c(C(F)(F)F)ccc(N2CCN(CCO)CC2)c1-c1nnn[nH]1", "QUANTITY_UNIT": "µM", "IC50": 0.0456}
{"MOLECULE": "NS(=O)(=O)c1cccc(-c2ccc(C(=O)N3CCC(O)CC3)cc2)c1-c1nn[nH]n1", "QUANTITY_UNIT": "µM", "IC50": 0.0966}
{"MOLECULE": "NS(=O)(=O)c1nccc(-c2ccc3cn[nH]c3c2)c1-c1nn[nH]n1", "QUANTITY_UNIT": "µM", "IC50": 0.0436}
{"MOLECULE": "NS(=O)(=O)c1cccc(-c2ccc(C3(C(F)(F)F)OCCO3)nc2)c1-c1nn[nH]n1", "QUANTITY_UNIT": "µM", "IC50": 0.0267}
{"MOLECULE": "NS(=O)(=O)c1cccc(-c2cnn(Cc3ccccn3)c2)c1-c1nn[nH]n1", "QUANTITY_UNIT": "µM", "IC50": 0.111}
{"MOLECULE": "NS(=O)(=O)c1cccc(C2CCC(O)CC2)c1-c1nn[nH]n1 (centres unmarked)", "QUANTITY_UNIT": "µM", "IC50": 0.128}
{"MOLECULE": "NCCNC1CCN(c2ccc(C(F)(F)F)c(S(N)(=O)=O)c2-c2nnn[nH]2)CC1", "QUANTITY_UNIT": "µM", "IC50": 0.00108}
{"MOLECULE": "NC1CCC(c2ccc(CCC3CCNCC3)c(S(N)(=O)=O)c2-c2nn[nH]n2)CC1 (centres unmarked)", "QUANTITY_UNIT": "µM", "IC50": 0.0612}
{"MOLECULE": "NS(=O)(=O)c1c(C(F)(F)F)ccc(-c2ccc(C3CN(CC4CNC4)C3)cc2)c1-c1nnn[nH]1", "QUANTITY_UNIT": "µM", "IC50": 0.0143}
